- System: SB.mhdgc-1
- experiment_summary: AC50 for growth inhibition (viability) (log10 M); higher = less potent
- measurement_conditions: SB.mhdgc-1 (hereditary c.1380delA CDH1 gastric cancer)
Where a name gives a salt, the structure may show the parent alone.
Label TRUE when AC50 for growth inhibition (log10 M) is strictly below -5; at or above that, label FALSE.

>>> answer_label("CN1CC(=O)\\N=C1\\NC(=O)NC2=CC(=CC=C2)Cl")
"FALSE"
>>> answer_label("Cn1c(=O)n(-c2ccc(C(C)(C)C#N)cc2)c2c3cc(-c4cnc5ccccc5c4)ccc3ncc21")
"TRUE"
>>> answer_label("CC(NCc1ccc2c(c1)[nH]/c(=N\\C(=O)c1ccc(-c3cn[nH]c3)s1)n2CC(C)(C)O)C(C)(C)C (stereo unspecified)")
"TRUE"
>>> answer_label("C/C=C(/C)C(=O)O[C@H]1C(C)=C2[C@H]([C@@H]1OC(=O)CCCCCCC)[C@@](C)(OC(C)=O)C[C@H](OC(=O)CCC)[C@@]1(O)[C@H]2OC(=O)[C@@]1(C)O")
"TRUE"
>>> answer_label("OCCNC1CCCc2c1[nH]c1ccc(-c3ccccc3)cc21 (stereo unspecified)")
"FALSE"
>>> answer_label("CCC(C)SSc1ncc[nH]1 (stereo unspecified)")
"FALSE"
>>> answer_label("NC1=NC=C(C=C1)C2=CC=C3N=CC\\4=C(N(C(=O)\\C=C4)C5=CC(=CC=C5)C(F)(F)F)C3=C2")
"TRUE"
>>> answer_label("C=CCNC1=C2C[C@@H](C)C[C@H](OC)[C@H](O)[C@@H](C)/C=C(\\C)[C@H](OC(N)=O)[C@@H](OC)/C=C\\C=C(/C)C(=O)NC(=CC1=O)C2=O")
"TRUE"
>>> answer_label("CC#C[C@]1(O)CC[C@H]2[C@@H]/3CCC/4=C/C(=O)CCC4=C3[C@H](C[C@]12C)C5=CC=C(C=C5)N(C)C")
"TRUE"
>>> answer_label("COc1cc(C(=O)NS(=O)(=O)c2ccccc2C)ccc1Cc1cn(C)c2ccc(NC(=O)OC3CCCC3)cc12")
"FALSE"
>>> answer_label("CC(=O)O[C@@]12CO[C@@H]1C[C@H](O)[C@]3(C)[C@@H]2[C@H](OC(=O)C4=CC=CC=C4)[C@]5(O)C[C@H](O)/C(=C(/[C@@H](O)C3=O)C5(C)C)C")
"TRUE"
>>> answer_label("CC(O)(C#Cc1ccc2c(c1)N(c1nc(N)ncc1Cl)CC2)c1nccs1 (stereo unspecified)")
"FALSE"
>>> answer_label("CCOC(=O)\\C1=C(/C)N\\C2=C(C1C3=CC=C(C=C3)C4=CC=CC=C4)\\C(=O)CC(C)(C)C2 (stereo unspecified)")
"FALSE"
>>> answer_label("c1ccc2c(Cc3c[nH]c4ccccc34)c[nH]c2c1")
"TRUE"
>>> answer_label("O=C(NCCCNc1nc(Nc2cccc(NC(=O)N3CCCC3)c2)ncc1I)c1cccs1")
"FALSE"
>>> answer_label("Nc1nnc(-c2cccc(Cl)c2Cl)c(N)n1")
"FALSE"
>>> answer_label("CC1(CN2CCC(n3c(=O)[nH]c4ccccc43)CC2)OCc2ccccc2-n2cccc21 (stereo unspecified) [Zaldaride maleate]")
"FALSE"
>>> answer_label("CCC(=O)O[C@@]1([C@H](C)C[C@H]2[C@@H]3C[C@H](F)\\C4=C\\C(=O)\\C=C/[C@]4(C)[C@@]3(F)[C@@H](O)C[C@]12C)C(=O)SCF [Fluticasone propionate]")
"FALSE"
>>> answer_label("O=C(Nc1ccncc1)C(=O)c1cn(Cc2ccc(Cl)cc2)c2ccccc12")
"TRUE"

The reported numbers originate from the supplement of paper PMC5412046.
